# Assay Overview: PAMPA assay
# Assay type: in vitro ADME
# Assay Conditions: read-out: PAMPA assay Pe Avg
Reported Endpoint: Papp
Please append the unit to your numeric answer.

// recorded Papp for Cc1cc(C(=O)Nc2cc(NC(=O)c3cc(N4CCN(C)CC4)cc(C(F)(F)F)c3)ccc2C)no1 : 55.5 ×10⁻⁶ cm/s

###

# Experimental Target: FMS (h) (Homo sapiens, UniProt P07333)
# Construct: purchased Reaction Biology Corp. (Kinase HotSpot service)
# Sequence (P07333 20-972): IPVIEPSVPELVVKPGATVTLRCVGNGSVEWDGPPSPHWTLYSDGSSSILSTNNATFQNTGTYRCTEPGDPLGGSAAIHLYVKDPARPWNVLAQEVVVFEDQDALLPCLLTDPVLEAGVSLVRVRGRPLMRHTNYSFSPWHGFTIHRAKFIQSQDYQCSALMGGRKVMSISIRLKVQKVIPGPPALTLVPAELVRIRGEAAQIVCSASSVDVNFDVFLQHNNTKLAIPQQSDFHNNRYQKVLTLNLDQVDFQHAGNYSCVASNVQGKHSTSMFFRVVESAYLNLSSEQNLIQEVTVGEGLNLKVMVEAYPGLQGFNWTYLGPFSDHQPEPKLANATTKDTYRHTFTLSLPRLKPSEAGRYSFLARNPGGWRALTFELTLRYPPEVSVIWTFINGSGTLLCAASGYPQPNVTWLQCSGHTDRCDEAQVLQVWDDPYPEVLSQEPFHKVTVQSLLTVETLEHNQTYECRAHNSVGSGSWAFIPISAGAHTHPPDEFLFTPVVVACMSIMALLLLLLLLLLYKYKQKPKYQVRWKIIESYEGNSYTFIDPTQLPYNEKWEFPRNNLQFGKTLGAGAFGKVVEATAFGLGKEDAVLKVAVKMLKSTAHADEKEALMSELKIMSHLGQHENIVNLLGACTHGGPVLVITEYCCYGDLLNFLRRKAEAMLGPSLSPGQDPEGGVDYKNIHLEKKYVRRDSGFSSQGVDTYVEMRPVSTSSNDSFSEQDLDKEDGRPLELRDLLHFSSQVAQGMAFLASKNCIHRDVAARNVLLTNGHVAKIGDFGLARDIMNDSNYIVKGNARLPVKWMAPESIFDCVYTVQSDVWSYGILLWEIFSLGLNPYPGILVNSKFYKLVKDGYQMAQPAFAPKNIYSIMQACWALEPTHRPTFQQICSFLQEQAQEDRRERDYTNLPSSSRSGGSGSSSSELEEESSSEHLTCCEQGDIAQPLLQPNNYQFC
# Assay Overview: Kinase HotSpot radiometric assay, activity on CSF-1R (FMS)
# Format: biochemical
# Assay Conditions: Table 3; read-out: IC50 (M) on FMS
Reported Endpoint: IC50

molecule CC(=O)N1CCC(c2ccc(NC(=O)c3cc(C)on3)c(C3=CCCCC3)c2)CC1 [Compound 83b] , IC50 observed: 1e-07 to 1e-06 M

More entries:
Per the records, this molecule ( Cc1cc(C(=O)Nc2ccc(C3CC(C)(C)NC(C)(C)C3)cc2C2=CCC(C)(C)CC2)no1 [Compound 92c] ) has IC50 equal to < 1e-07 M

Entry Cc1cc(C(=O)Nc2ccc(C3CCN(C(=O)CN(C)C)CC3)cc2C2=CCCCC2)no1 [Compound 84b] ; IC50 = 1e-07 to 1e-06 M

###

# Experimental Target: FMS (h) (Homo sapiens)
# Construct: purchased Reaction Biology Corp. (Kinase HotSpot service)
# Assay Overview: Kinase HotSpot radiometric assay, activity on CSF-1R (FMS)
# Assay type: biochemical
# Assay Conditions: Table 5; read-out: IC50 on CSF-1R
Reported Endpoint: pIC50
Value format note: pIC50 is -log10 of concentration (mol/L); just state the number.

pIC50 measured on Cc1ccc(NC(=O)c2cc(N3CCN(C)CC3)cc(C(F)(F)F)c2)cc1NC(=O)c1cnoc1C [Comparative example 1, reference compound] = 7.99

###

# Experimental Target: FMS (h) (Homo sapiens, UniProt P07333)
# Construct: purchased Reaction Biology Corp. (Kinase HotSpot service)
# Assay Overview: Kinase HotSpot radiometric assay, activity on CSF-1R (FMS)
# Assay type: biochemical
# Assay Conditions: Table 3; read-out: IC50 (M) on FMS
Reported Endpoint: IC50

Query Cc1cc(C(=O)Nc2ccc(C3CC(C)(C)NC(C)(C)C3)cc2C2=CCCCC2)no1 [Compound 92a] yields IC50 of < 1e-07 M

GET /value?item= Cc1cc(C(=O)Nc2ccc(C3CC[N+](C)(C)CC3)cc2C2CCCCC2)no1 [Compound 81b] &field=IC50 returns 1e-07 to 1e-06 M

// Cc1cc(C(=O)Nc2ccc(C3CCC[N+](C)(C)CC3)cc2C2=CCC(C)(C)CC2)no1 (stereo not drawn) [Compound 80c] : IC50 value = < 1e-07 M

Value of measured IC50 for the entry CC[N+]1(CC)CCC(c2ccc(NC(=O)c3cc(C)on3)c(C3=CCCCC3)c2)CC1 [Compound 82b] : < 1e-07 M

// field: IC50; key: Cc1cc(C(=O)Nc2ccc(C3CC(C)(C)NC(C)(C)C3)cc2C2=CCCCCC2)no1 [Compound 92d] ; value = 1e-07 to 1e-06 M

# compound Cc1cc(C(=O)Nc2ccc(C3CCN(CC4CC4)CC3)cc2C2=CCC(C)(C)CC2)no1 [Compound 78b] ; its IC50 = < 1e-07 M

New cases:
The measured IC50 associated with Cc1cc(C(=O)Nc2ccc(C3CC[N+](C)(C)CC3)cc2C2=CCCCC2)no1 [Compound 79b] reads < 1e-07 M

Cc1cc(C(=O)Nc2ccc(C3CCC[N+](C)(C)CC3)cc2C2=CCCCC2)no1 (stereo not drawn) [Compound 79c] has a reported IC50 of < 1e-07 M

Sample Cc1cc(C(=O)Nc2ccc(C3CC(C)(C)NC(C)(C)C3)cc2C2=CCC(C)CC2)no1 (stereo not drawn) [Compound 92b] ; IC50 observed: < 1e-07 M
